# experiment: In vivo ileum (distal loop) absorption assay
# conditions: Sprague Dawley, rat, 300 μM peptide with 100 mM C10, rats, 60 min, read-out: 60 min IL plasma concentration
Starred links: 1 amine or outer side, 2 acyl side, 3 side chain; linkers in the order of their positions; H or OH if unused. Non-standard residues stand in square brackets, D forms with d. Groups on a side chain read outwards from the residue. No end group written: not given here. *: point of attachment. C18 diacid = O=C(O)CCCCCCCCCCCCCCCCC(=O)*; γGlu = O=C(O)[C@H](CCC(=O)[*:2])N[*:1]; αMe4Pal = C[C@](N)(Cc1ccncc1)C(=O)O; αMeL = CC(C)C[C@](C)(N)C(=O)O; AEEA = NCCOCCOCC(=O)O; Aib = CC(C)(N)C(=O)O
endpoint: level at time molar at 1 h
Reply with the number, then its unit.

Return value of level at time molar at 1 h for input Y[Aib]QGTFTSDFSQ[αMeL]LDKK([AEEA-γGlu-C18 diacid])AQ[αMe4Pal]AFIEYLIE[Aib]GESSGAPPPSGS-NH2 [Example 232] , no commentary.
256 nM
